- Test system: Brassica rapa subsp. oleifera
- MEASUREMENT NOTES: Herbicidal activity against Brassica rapa subsp. oleifera assessed as inhibition of fresh weed plant weight at 1500 g/ha using pre-emergence treatment protocol
- Format: functional
Returns rule met if the recorded inhibition at 1500 g/ha is greater than or equal to 80%, and rule not met otherwise.

>  <SUBSTANCE SMILES>
C=CCN1C(=O)COc2cc(F)c(-n3nnc4nn(CC=C)cc4c3=O)cc21

>  <TESTED ON>
Brassica rapa subsp. oleifera

>  <GROUP>
rule met

$$$$
>  <SUBSTANCE SMILES>
C#CCN1C(=O)COc2cc(F)c(-n3nnc4c(c(C)nn4C)c3=O)cc21

>  <TESTED ON>
Brassica rapa subsp. oleifera

>  <GROUP>
rule not met

$$$$
>  <SUBSTANCE SMILES>
C#CCN1C(=O)COc2cc(F)c(-n3nnc4nn(CCC)cc4c3=O)cc21

>  <TESTED ON>
Brassica rapa subsp. oleifera

>  <GROUP>
rule not met

$$$$
>  <SUBSTANCE SMILES>
C=C(Cl)COc1cc(-n2nnc3c(cnn3C)c2=O)c(F)cc1Cl

>  <TESTED ON>
Brassica rapa subsp. oleifera

>  <GROUP>
rule not met

$$$$
>  <SUBSTANCE SMILES>
C#CCOc1cc(-n2nnc3nn(CC=C)cc3c2=O)c(F)cc1Cl

>  <TESTED ON>
Brassica rapa subsp. oleifera

>  <GROUP>
rule not met

$$$$
